- EXPERIMENTAL_SYSTEM: Glutamate NMDA receptor
- ASSAY_EXPLANATION: Displacement of [3H]glycine from NMDA receptor in rat cortical synaptical membrane
MEASURED_ENDPOINT: Ki
Put your answer as a value accompanied by its unit after it.

Examples with their reported Ki follow.
| SMI | Ki |
| --- | --- |
| O=Cc1ccn(-c2cc3c(=O)n(O)c(=O)[nH]c3cc2C(F)(F)F)c1 | 0.8 µM |
| O=c1[nH]c2cc(C(F)(F)F)c([N+](=O)[O-])cc2c(=O)n1O | 1.3 µM |
| O=c1[nH]c2cc(Cl)c([N+](=O)[O-])cc2c(=O)n1O | 1.1 µM |
| O=C(O)c1ccn(-c2cc3c(=O)n(O)c(=O)[nH]c3cc2C(F)(F)F)c1 | 5.1 µM |
| O=c1[nH]c2cc(C(F)(F)F)c(-n3cnnc3)cc2c(=O)n1O | 6.5 µM |
| Nc1cc2c(=O)n(O)c(=O)[nH]c2cc1C(F)(F)F | 6.1 µM |
| O=c1[nH]c2cc(C(F)(F)F)ccc2c(=O)n1O | 0.85 µM |

Shifting focus to the compound that follows.
Ask: Could you tell me which Ki is on file for `O=C(O)c1cc(O)c2c(Cl)cc(Cl)cc2n1` ?
Reply: 0.08 µM

====

- ASSAY_EXPLANATION: Displacement of [3H]kainate from high affinity kainate receptor in rat cortical membrane
- Type: cell membranes
MEASURED_ENDPOINT: IC50
Could you kindly put the unit after your number?

# count of solved cases: 4
| MOLECULE | IC50 |
| --- | --- |
| O=c1[nH]c2cc(C(F)(F)F)c([N+](=O)[O-])cc2c(=O)n1O | 7 µM |
| O=Cc1ccn(-c2cc3c(=O)n(O)c(=O)[nH]c3cc2C(F)(F)F)c1 | 4.2 µM |
| O=C(O)c1ccccc1C(=O)Nc1cc2c(=O)n(O)c(=O)[nH]c2cc1C(F)(F)F | 25 µM |
| NS(=O)(=O)c1cccc2c1c([N+](=O)[O-])cc1nc(O)c(O)nc12 [NBQX] | 7 µM |

Now consider a different molecule.
Ask: Endpoint output: IC50 of `O=c1[nH]c2cc(Cl)c([N+](=O)[O-])cc2c(=O)n1O` . Value?
Reply: 19.1 µM

====

- ASSAY_EXPLANATION: Displacement of [3H]kainate from high affinity kainate receptor in rat cortical membrane
- Type: cell membranes
Overview of reported IC50 across a group of compounds:
Record the value in µM, omitting the unit from your answer.

Study these solved cases before continuing.
| SMI | IC50 / µM |
| --- | --- |
| Nc1cc2c(=O)n(O)c(=O)[nH]c2cc1C(F)(F)F | 32 |
| O=c1[nH]c2cc(C(F)(F)F)ccc2c(=O)n1O | 37.6 |

Ask: Fill in: IC50 of `O=C(O)c1ccn(-c2cc3c(=O)n(O)c(=O)[nH]c3cc2C(F)(F)F)c1` is ___
Reply: 17.3

====

- EXPERIMENTAL_SYSTEM: Glutamate NMDA receptor (Rattus norvegicus) (UniProt P35439+Q00959+Q00960+Q00961+Q62645+Q8VHN2+Q9R1M7)
- ASSAY_EXPLANATION: Displacement of [3H]glycine from NMDA receptor in rat cortical synaptical membrane at 100 uM
- Format: cell membranes
Listing of entries alongside the reported Imax.
State the answer as a number, implicitly in %.

Known Imax results, listed for orientation:
| COMPOUND | SCALE_UNIT | Imax |
| --- | --- | --- |
| COn1c(=O)[nH]c2cc(C(F)(F)F)c(-n3cnnc3)cc2c1=O | % | 21 |
| O=c1[nH]c2cc(C(F)(F)F)c(-n3cccc3)cc2c(=O)n1O | % | 32 |
| O=C(O)c1ccccc1C(=O)Nc1cc2c(=O)n(O)c(=O)[nH]c2cc1C(F)(F)F | % | 10 |

Ask: Recorded Imax for NS(=O)(=O)c1cccc2c1c([N+](=O)[O-])cc1nc(O)c(O)nc12 [NBQX] , please?
Reply: 3

These entries and their values trace back to ChEMBL document CHEMBL2046273.
